Molecular target: T1, recombinant human TfR (r human TfR: Sino Biological Inc.) (human, UniProt P02786 89-760)
T1 construct: Bought product; also called r human TfR-ECD (Histag); hTfR; not shown: histidine tag attached to the N-terminus
T1 sequence (P02786 89-760): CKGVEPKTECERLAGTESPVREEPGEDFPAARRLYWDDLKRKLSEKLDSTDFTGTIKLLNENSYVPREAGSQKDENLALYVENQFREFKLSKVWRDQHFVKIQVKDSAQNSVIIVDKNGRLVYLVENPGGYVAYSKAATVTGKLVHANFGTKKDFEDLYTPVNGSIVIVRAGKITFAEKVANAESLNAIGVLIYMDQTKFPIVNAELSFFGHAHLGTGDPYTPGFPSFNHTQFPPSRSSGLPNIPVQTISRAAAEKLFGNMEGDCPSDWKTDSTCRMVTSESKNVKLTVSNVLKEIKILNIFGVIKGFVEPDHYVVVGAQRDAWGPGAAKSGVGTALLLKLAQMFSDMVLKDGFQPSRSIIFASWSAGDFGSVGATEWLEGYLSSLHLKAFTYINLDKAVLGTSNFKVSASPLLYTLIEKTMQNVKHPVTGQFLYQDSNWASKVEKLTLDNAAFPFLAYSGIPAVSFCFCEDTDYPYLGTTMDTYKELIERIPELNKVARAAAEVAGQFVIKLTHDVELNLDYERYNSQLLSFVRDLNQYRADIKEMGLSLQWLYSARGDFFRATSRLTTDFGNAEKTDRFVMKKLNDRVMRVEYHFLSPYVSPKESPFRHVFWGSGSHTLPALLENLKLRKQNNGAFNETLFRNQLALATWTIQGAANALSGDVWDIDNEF
Experiment: BLI (Octet RED96), His-tagged TfR ECD loaded on Ni-NTA sensor, antibody as analyte
measuredEndpoint: kon

# binder, endpointResult
data = [
    ("anti-hTfR antibody No. 14 (antibody, V domains shown, Mouse hybridoma antibody purified on Protein G; also called mouse anti-hTfR antibody No. 14; product of Clone 14 line) VH: EVQLQESGPELLKPGASVKMSCKASGYAFTGYVIHWVKQKPGQGLEWIGFLNPHKDDSEYNEKFRGKATLTSDKSSSTAYMDLSSLTSEDSAVYYCARGYYYYSMDYWGQGTSVTVSS VL: DIVLTQTPVIMSAYPGEKVTLTCSASSNINSIHWYQQKPGTSPKRWIYDTSNLASGVPARFSGSGSGTSYSLTISSMEAEDAASYYCHQRSGYPFTFGSGTKLEIK", "961000 M⁻¹ s⁻¹"),
]

Numbers sourced from patent US20240262926A1.
